Test system: SN12C renal
protocol_notes: NCI-60 one-dose screen, 48 h (100 = growth as untreated, 0 = no growth, -100 = all killed)
run_conditions: 10 µM unless noted
Compounds without any hit were thinned out: in the full panel of roughly 83,000, 20% have a hit.
metric_name: growth (%)

INSERT INTO assay_data (molecule, metric_name, measured_number) VALUES
  ('C/C(=N\NC(=O)CSc1nc2ccccc2c(=O)n1CCc1ccc(S(N)(=O)=O)cc1)c1ccc(Br)cc1', 'growth', 92.2),
  ('CC1=CCC2C1CC=C(C)C(CC[C@H]1[C@@](C)(O)CCC3OC(C)(C)[C@H](OC(=O)c4ccccc4)CC[C@@]31C)C2(C)C (stereo partly drawn)', 'growth', 80.6),
  ('O=c1nc(-c2ccccc2)c2cc(-c3ccc(N4CCOCC4)cc3)ccc2[nH]1', 'growth', 79.4),
  ('CCCCCN(CCCCC)C(=O)C(CCC(=O)O)NC(=O)c1ccc(Cl)c(Cl)c1 (stereo not drawn)', 'growth', 100),
  ('Clc1ccc(Cl)c(N=Cc2ccc3c(c2)OCO3)c1', 'growth', 105),
  ('c1coc(CNc2c3ccccc3nc3ccccc23)c1', 'growth', 53.5),
  ('COc1cc(/C=C/c2cc(/C=C/c3ccc(O)c(OC)c3)n(C(=O)c3ccccc3Br)n2)ccc1O', 'growth', 14.2),
  ('CCN(C(=O)CCl)C(C)(C)C(SSSC(c1ccc(Cl)cc1)C(C)(C)N(CC)C(=O)CCl)c1ccc(Cl)cc1 (stereo not drawn)', 'growth', 88.3),
  ('CS(=O)(=O)c1ccc(C(=O)N2N=C(c3ccccc3)CC2c2ccc3c(c2)OCO3)cc1 (stereo not drawn)', 'growth', 94.4),
  ('N#Cc1ccc(-c2ccc(-c3cccs3)o2)cc1F', 'growth', 89.1),
  ('C=C(C)[C@@H]1CC[C@]2(C(=O)NC(COC(=O)C(Cl)Cl)(COC(=O)C(Cl)Cl)COC(=O)C(Cl)Cl)CC[C@]3(C)[C@H](CC[C@@H]4[C@@]5(C)CC[C@H](OC(C)=O)C(C)(C)[C@@H]5CC[C@]43C)[C@@H]12', 'growth', 37),
  ('COc1ccc(CC2c3cc(OC)c(OC)cc3CC[N+]2(C)CCC(=O)OCCCCCOC(=O)CC[N+]2(C)CCc3cc(OC)c(OC)cc3C2Cc2ccc(OC)c(OC)c2)cc1OC (stereo not drawn)', 'growth', 81.2),
  ('COc1ccc(Cl)cc1Nc1nc(C(F)(F)F)ccc1C(=O)NN', 'growth', 35.7),
  ('c1ccc2c(N=NSc3ncnc4nc[nH]c34)c3ccccc3nc2c1', 'growth', 4.81),
  ('C=C[C@H]1CCC/C=C/[C@@H]2C[C@H](O)C[C@H]2[C@H](O)/C=C/C(=O)O1', 'growth', 5.71),
  ('CCCCCCCCCCCC1=NC(C)(C)CN1CC(C)O (stereo not drawn)', 'growth', 69.8),
  ('COc1ccc2nc(C)cc(Sc3nc4ccccc4s3)c2c1', 'growth', 40.5),
  ('Nc1nc(NC2CC2)cc(-c2cccc(Cl)c2Cl)n1', 'growth', 59.6),
  ('COc1cnc2c(c1)C(=O)c1c-2n(CCCN2CCCC2)c(=O)c2cc(Cl)ccc12', 'growth', 27.5),
  ('O=C(CCCCCCN1CC(=O)N2[C@@H](c3ccc(Cl)c(Cl)c3)c3[nH]c4ccccc4c3C[C@H]2C1=O)NO', 'growth', 60.8),
  ('C[C@@H]1N=C(c2ccc3ccccc3c2)Nc2nc3ccccn3c2C1=O', 'growth', 60.1),
  ('O=S(=O)(Nc1ccc2ccccc2c1)N1CCCCC1', 'growth', 81.9),
  ('CC(C)(C)OC[C@@H]1N=C(c2ccc(Br)cc2)Nc2nc3ccccn3c2C1=O', 'growth', 84.1),
  ('CS(=O)(=O)c1ccc(Cl)c([N+](=O)[O-])c1', 'growth', 107),
  ('CCN(CC)c1ccc(/C=N/NC(=O)C[N+](C)(C)C)cc1', 'growth', 105),
  ('O=C(CCCN1CCC(O)(c2ccc(Br)cc2)CC1)c1ccc(F)cc1', 'growth', 72.8),
  ('CCCCOC(=O)c1cc(O)c(O)c(O)c1', 'growth', 62.7),
  ('NC(=O)c1ccc[n+](Cc2ccccc2)c1', 'growth', 101),
  ('O=C(NO)c1ccc(CNc2cccc3nc(C4CC4)n(-c4ccccc4)c(=O)c23)cc1', 'growth', 15.5),
  ('ClC1(Cl)C2CCCCCCC21 (stereo not drawn)', 'growth', 108),
  ('CCN1C(=O)N(CC)C2C1N=C(SC)N2/N=C/C=C/c1ccccc1OC (stereo not drawn)', 'growth', 26.5),
  ('CCOC(=O)Cn1c(-c2nonc2NC(=O)c2ccccc2F)nc2ccccc21', 'growth', 57.9),
  ('CCOC(=O)CCN(CCC(=O)OCC)c1ccccc1', 'growth', 110);
